Numbers sourced from patent US20180334496A1.

# experimental-target: T1, human complement factor D purified from serum (human, UniProt P00746 26-253)
# T1 construct: serum-purified (CompTech); also called hCFD-Comptech; CFD
# T1 sequence (P00746 26-253): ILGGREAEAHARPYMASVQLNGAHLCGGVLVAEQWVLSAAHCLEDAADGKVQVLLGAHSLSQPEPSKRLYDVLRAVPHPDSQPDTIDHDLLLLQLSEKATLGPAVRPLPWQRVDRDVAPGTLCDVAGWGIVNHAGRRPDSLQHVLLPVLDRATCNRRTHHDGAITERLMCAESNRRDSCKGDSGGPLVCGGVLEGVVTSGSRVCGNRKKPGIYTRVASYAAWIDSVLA
# experiment-notes: SPR MX96
pKd: −log10 of the molar value.
Documented pKd across a set of binders

>  <binder>
KCD214 (antibody, V domains shown, chimeric) VH: EVQLQQSVAEFVRPGASVKLSCTASGFNIKNTYMHWVKQRPEQGLEWIGRIDPANGNTEYAPKFQGKATITADTSSNTAYLQLSSLTSEDTAIYYCALYDYDGYWGQGTTLTVSS VL: EIVLTQSPALMAASPGEKVTITCRVSSSISSSSLHWYQQKSGTSPKPWIYGTSNLASGVPVRFSGSRSGTSYSLTISSMEAEDAATYYCQQWSDYPWTFGGGTKLEIK

>  <pKd>
8.80

$$$$
>  <binder>
KCD210 (antibody, V domains shown) VH: EVQLQQSGPVLVKPGASVTMSCKASGYTFTEYYMNWVKQSHGKSLDWIGVINPYSGGTSYKQKFKDKATLTVDKSSSTAYMELNGLTSEDSAVYFCVRGGLRRNYFDYWGQGTTLTVSS VL: EIVLTQSPALMTASPGEKVTITCSVSSSISSTNLHWYQQKSGTSPKPWIFGTSNLASGVPVRFSGSGSGTSYSLTISNMEAEDAATYYCQQWNSYPFTFGTGTKLEIK

>  <pKd>
8.46

$$$$
>  <binder>
KCD123 (antibody, V domains shown, chimeric) VH: EVHLQQSGPELVKPGASVKISCKASGYTFTDFYKNWMRQRHGESLEWIGDINPNNGGTNYNQKFKGKATLTVDKSSSTAYMELRSLTSEDSAVYYCAREGPSFAYWGQGTLVTVSA VL: DVLMTQTPLSLPVSLGDQASISCRSSQTIVHSNGDTYLEWYLQKPGQSPNLLIYKVSNRFSGVPDRFSGSGSGTDFTLKISRVEAEDLGVYYCFQGSHVPPTFGGGTKLEIK

>  <pKd>
8.55

$$$$
>  <binder>
KCD075 (antibody, V domains shown) VH: QVQLLQPGAELVRPGTSVKLSCKASGYTFSNYWINWVKQRPGQGLEWIGNIYPSDSSINYNQKFKDKATLTVDKSSTTAYMQLSSPTSEDSAVYYCTGTDWYFDVWGAGTTVTVSS VL: DIQMTQTTSSLSASLGDRVTISCSGGQGISNYLNWYQQKPDGTFKLLIYYTSTLHSGVPSRFSGSGSGTDYSLTISNLEPEDVATYYCQQYSKLPYTFGGGTKLEIK

>  <pKd>
8.43

$$$$
>  <binder>
KCD048 (antibody, V domains shown, chimeric) VH: EVQLQQSGADLVKPGASVKLSCTASGFNIKATYMHWVRQRPEKGLEWIGRIDPANGHTIYDPQFQGKATITSDTSSNTAYLQLNSLTSEDTAVYYCAEAMDYWGQGTSVTVSS VL: QIVLTQSPAIMSASPGEKVTLTCSATSSVSYMYWYQQKPGSSPRLLIYDTSNLASGVPVRFSGSGSGTSYSLTISRMEAEDDATYYCQQWSNYPFTFGGGTKLEIK

>  <pKd>
8.72

$$$$
